experiment: Terminal half life in Sprague-Dawley rat at 10 mg/kg, po or 2 mg/kg, iv; format: ADME, organism-based; conditions: in vivo, read-out: beta t1/2 (converted)
endpoint_label: half-life
Please append the unit to your numeric answer.

## Input Quick check: half-life of Cc1ccc(Cc2cc3c(=O)n([C@H]4CCCC[C@@H]4O)cnc3c3ccccc23)cn1 ?
## Output 1.3 h

###

target: Voltage-gated inwardly rectifying potassium channel KCNH2 (Homo sapiens, UniProt Q12809)
Sequence (Q12809 whole entry): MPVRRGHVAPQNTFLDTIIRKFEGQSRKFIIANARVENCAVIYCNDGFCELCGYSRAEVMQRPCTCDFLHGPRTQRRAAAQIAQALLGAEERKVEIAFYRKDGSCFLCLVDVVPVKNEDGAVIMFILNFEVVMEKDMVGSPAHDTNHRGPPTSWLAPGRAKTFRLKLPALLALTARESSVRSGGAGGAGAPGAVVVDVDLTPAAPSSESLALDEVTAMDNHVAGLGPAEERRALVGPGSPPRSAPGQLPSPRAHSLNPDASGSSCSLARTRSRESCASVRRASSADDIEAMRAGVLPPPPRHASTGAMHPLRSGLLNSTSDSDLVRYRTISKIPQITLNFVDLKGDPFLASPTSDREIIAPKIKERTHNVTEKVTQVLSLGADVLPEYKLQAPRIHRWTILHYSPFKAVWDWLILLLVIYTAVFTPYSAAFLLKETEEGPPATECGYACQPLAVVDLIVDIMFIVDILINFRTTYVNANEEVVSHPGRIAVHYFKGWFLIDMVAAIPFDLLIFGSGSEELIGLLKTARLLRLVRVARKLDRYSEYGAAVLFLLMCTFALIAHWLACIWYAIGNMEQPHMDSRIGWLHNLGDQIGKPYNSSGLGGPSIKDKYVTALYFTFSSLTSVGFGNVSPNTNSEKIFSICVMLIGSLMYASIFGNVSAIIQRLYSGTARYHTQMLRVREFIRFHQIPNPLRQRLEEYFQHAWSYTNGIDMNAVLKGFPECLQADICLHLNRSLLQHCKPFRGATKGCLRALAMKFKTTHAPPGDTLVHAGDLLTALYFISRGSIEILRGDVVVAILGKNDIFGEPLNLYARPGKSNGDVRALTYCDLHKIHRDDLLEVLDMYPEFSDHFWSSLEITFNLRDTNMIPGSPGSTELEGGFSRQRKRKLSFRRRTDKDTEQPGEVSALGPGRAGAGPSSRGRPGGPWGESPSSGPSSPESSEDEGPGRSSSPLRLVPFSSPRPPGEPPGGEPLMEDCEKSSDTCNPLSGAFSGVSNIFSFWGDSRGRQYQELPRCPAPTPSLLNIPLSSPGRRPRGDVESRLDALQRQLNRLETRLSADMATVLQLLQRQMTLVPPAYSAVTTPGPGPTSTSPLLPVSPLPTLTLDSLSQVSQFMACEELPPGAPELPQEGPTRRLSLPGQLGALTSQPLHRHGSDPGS
endpoint_label: pIC50
Here pIC50 is given on a logarithmic scale as minus log10 of the concentration in mol/L.

molecule | pIC50
COc1ccc(Cc2cc3c(=O)n([C@H]4CCCC[C@@H]4O)cnc3c3ccccc23)cn1 | 5.19
O=c1c2cc(Cc3cccnc3)c3ccccc3c2ncn1[C@H]1CCCC[C@@H]1O (relative stereo) | 4.92
O=c1c2cc(Cc3ccc(Cl)nc3)c3ccccc3c2ncn1[C@H]1CCCC[C@@H]1O | 4.89

## Input Param readout = pIC50; param system = Voltage-gated inwardly rectifying potassium channel KCNH2 (Homo sapiens, UniProt Q12809); param query = CSc1ccc(Cc2cc3c(=O)n([C@H]4CCCC[C@@H]4O)cnc3c3ccccc23)cn1 ; response: value
## Output 5.12

###

molecular target: Muscarinic acetylcholine receptor M1 (Homo sapiens); assay: Positive allosteric modulation of human muscarinic acetylcholine receptor M1 expressed in CHO cells assessed as increase in acetylcholine-induced calcium mobilization pretreated for 4 mins followed by acetylcholine addition and measured after 4 mins by Fluo-4-AM dye based FLIPR assay; assay type: functional, cell-based
Entries annotated with measured IP
Provide only the numeric value, understood in µM.

mol | endpoint_value
COc1ccc(Cc2cc3c(=O)n([C@H]4CCCC[C@@H]4O)cnc3c3ccccc23)cc1 | 0.22

## Input Give the measured IP of Cc1ccc(Cc2cc3c(=O)n([C@H]4CCCC[C@@H]4O)cnc3c3ccccc23)cn1 .
## Output 0.019

###

assay: Kinetic solubility of the compound at pH 7; format: physicochemical; conditions: buffer, read-out: Kinetic_solubility
Property: solubility kinetic; scope: individual compounds
Output spec: scalar in µM, unitless text.

compound | endpoint_label | endpoint_value
Cc1ccc(Cc2cc3c(=O)n([C@H]4CCCC[C@@H]4O)cnc3c3ccccc23)cn1 | solubility kinetic | 17

## Input Any idea what its solubility kinetic is? The compound is O=c1c2cc(Cc3cccnc3)c3ccccc3c2ncn1[C@H]1CCCC[C@@H]1O (relative stereo)
## Output 34

###

biological target: Muscarinic acetylcholine receptor M1 (Homo sapiens); assay: Positive allosteric modulation of human muscarinic acetylcholine receptor M1 expressed in CHO cells assessed as increase in acetylcholine-induced calcium mobilization pretreated for 4 mins followed by acetylcholine addition and measured after 4 mins by Fluo-4-AM dye based FLIPR assay; assay type: functional, cell-based
Entries annotated with measured IP
Note: unit µM is implicit; provide only the numeric part.

Past entries and their recorded results:
compound | system_tested | IP / µM
COc1ccc(Cc2cc3c(=O)n([C@H]4CCCC[C@@H]4O)cnc3c3ccccc23)cn1 | Muscarinic acetylcholine receptor M1 (Homo sapiens) | 0.018
CSc1ccc(Cc2cc3c(=O)n([C@H]4CCCC[C@@H]4O)cnc3c3ccccc23)cn1 | Muscarinic acetylcholine receptor M1 (Homo sapiens) | 0.021
COc1ccc(Cn2cc3c(=O)[nH]nc-3c3ccccc32)cc1 | Muscarinic acetylcholine receptor M1 (Homo sapiens) | 57
COc1ccc(Cc2cc3c(=O)n(-c4ccccc4F)cnc3c3ccccc23)cc1 | Muscarinic acetylcholine receptor M1 (Homo sapiens) | 0.82
COc1ccc(Cc2cc3c(c4ccccc24)CN([C@H]2CCCC[C@@H]2O)C3=O)cc1 | Muscarinic acetylcholine receptor M1 (Homo sapiens) | 0.052

Please find the next compound below.
## Input I'd like to know its IP. The compound in question is O=c1c2cc(Cc3cccnc3)c3ccccc3c2ncn1[C@H]1CCCC[C@@H]1O (relative stereo)
## Output 0.042
